Target: HLA-B*5101 (human)
Experiment: competition vs 125I-labelled probe peptide, purified HLA, gel filtration
pIC50: −log10 of the molar value.
Value Type: pIC50

[[record]]
binder = "FPASPLDSTI (10-mer analog of the HER2/neu peptide starting at position 995) [Her2/neu.995.F1I10]"
value_type = "pIC50"
data_value = 7.70

[[record]]
binder = "FPAARPAGI (9-mer analog of the HER2/neu peptide starting at position 1157) [Her2/neu.1157.F1I9]"
value_type = "pIC50"
data_value = 6.88

[[record]]
binder = "FPASPLDSTF (10-mer analog of the HER2/neu peptide starting at position 995) [Her2/neu.995.F1]"
value_type = "pIC50"
data_value = 6.24

